Ref: ChEMBL document CHEMBL4351031

target: Cholinesterase (Equus caballus) (UniProt P81908); assay: Inhibition of equine serum BuChE using S-butyrylthiocholine chloride as substrate at 50 uM incubated for 15 mins by Ellman's method relative to control
Sequence (P81908 whole entry): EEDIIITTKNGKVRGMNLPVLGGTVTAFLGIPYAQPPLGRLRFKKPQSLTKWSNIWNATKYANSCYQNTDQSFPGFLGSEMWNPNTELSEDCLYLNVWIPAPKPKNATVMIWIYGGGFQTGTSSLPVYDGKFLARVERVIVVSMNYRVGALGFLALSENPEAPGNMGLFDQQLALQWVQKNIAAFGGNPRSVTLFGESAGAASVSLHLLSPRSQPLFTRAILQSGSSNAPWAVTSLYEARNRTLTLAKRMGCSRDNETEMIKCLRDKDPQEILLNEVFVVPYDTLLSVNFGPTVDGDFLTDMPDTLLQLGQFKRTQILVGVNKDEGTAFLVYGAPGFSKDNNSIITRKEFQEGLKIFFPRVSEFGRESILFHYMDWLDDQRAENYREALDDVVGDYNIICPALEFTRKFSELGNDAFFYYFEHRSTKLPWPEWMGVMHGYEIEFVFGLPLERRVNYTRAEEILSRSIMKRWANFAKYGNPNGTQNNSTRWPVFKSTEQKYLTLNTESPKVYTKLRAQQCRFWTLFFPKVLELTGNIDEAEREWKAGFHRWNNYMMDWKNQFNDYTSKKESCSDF
endpoint label: inhibition

Use these answered entries as a reference point.
smiles structure: CC(=O)c1ccc(OCCCCCN2CCc3ccccc3C2)cc1O
inhibition: < 5%
--
smiles structure: CCN(CCOc1ccc(C(C)=O)c(O)c1)Cc1ccccc1
inhibition: < 5%

[in] Return reported inhibition; argument: `CCN(CC)CCOc1ccc(C(C)=O)c(O)c1`
[out] < 5%
